Biological target: T1, histidine-tagged soluble human CD33 (hCD33-His) (human, UniProt P20138 18-259)
T1 construct: Human CD33 extracellular region with six histidines at the C-terminus, made in CHO/DG44 cells
T1 sequence (P20138 other isoform, or with tags, fused parts or gaps limits assumed): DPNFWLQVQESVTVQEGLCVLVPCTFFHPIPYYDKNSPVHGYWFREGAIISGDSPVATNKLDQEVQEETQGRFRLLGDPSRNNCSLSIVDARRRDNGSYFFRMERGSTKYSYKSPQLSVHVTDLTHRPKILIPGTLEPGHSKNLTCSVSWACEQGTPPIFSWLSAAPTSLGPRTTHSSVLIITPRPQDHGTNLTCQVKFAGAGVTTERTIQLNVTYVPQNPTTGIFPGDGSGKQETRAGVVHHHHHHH
Experiment: SPR (Biacore T-100), antibody captured on anti-human IgG, hCD33-His as analyte
property.measured: binding result

binder	result
modified CD33 chimeric antibody ver.4 (KM4084) (antibody, V domains shown) VH: QLQETGPGLVKPSQSLSLTCSVTGYTITSGYEWTWIRKFPGNRMEWMGYINSAGSTDYNPSLKSRVSITRDTSKNQFFLQLNSVTTEDTATYFCTRWDRWGPGVMVTVSS VL: DVVLTQTLVAQPVRLGDQASISCRSSQSLVHSDGHTYLEWYLQKPGQSPQLLIYEISNRFSGVPDRFSGSGSGSDFTLKISRVEPEDLGLYYCFQGTHDLPTFGGGTKLELK	binds
modified CD33 chimeric antibody ver.5 (antibody, V domains shown) VH: QLQETGPGLVKPSQSLSLTCSVTGYTITSGYEWTWIRKFPGNRMEWMGYINSGGSTDYNPSLKSRVSITRDTSKNQFFLQLNSVTTEDTATYFCTRWDRWGPGVMVTVSS VL: DVVLTQTLVAQPVRLGDQASISCRSSQSLVHSDGHTYLEWYLQKPGQSPQLLIYEISNRFSGVPDRFSGSGSGSDFTLKISRVEPEDLGLYYCFQGTHDLPTFGGGTKLELK	binds
modified CD33 chimeric antibody ver.2 (antibody, V domains shown) VH: QLQETGPGLVKPSQSLSLTCSVTGYTITSGYEWTWIRKFPGNRMEWMGYISSSGSTDYNPSLKSRVSITRDTSKNQFFLQLNSVTTEDTATYFCTRWDRWGPGVMVTVSS VL: DVVLTQTLVAQPVRLGDQASISCRSSQSLVHSDGHTYLEWYLQKPGQSPQLLIYEISNRFSGVPDRFSGSGSGSDFTLKISRVEPEDLGLYYCFQGTHDLPTFGGGTKLELK	binds
